Give IC50 for every item shown.
# target-or-test-system: human CB2 receptors (Homo sapiens (Human), UniProt P34972)
# Sequence (P34972 whole entry): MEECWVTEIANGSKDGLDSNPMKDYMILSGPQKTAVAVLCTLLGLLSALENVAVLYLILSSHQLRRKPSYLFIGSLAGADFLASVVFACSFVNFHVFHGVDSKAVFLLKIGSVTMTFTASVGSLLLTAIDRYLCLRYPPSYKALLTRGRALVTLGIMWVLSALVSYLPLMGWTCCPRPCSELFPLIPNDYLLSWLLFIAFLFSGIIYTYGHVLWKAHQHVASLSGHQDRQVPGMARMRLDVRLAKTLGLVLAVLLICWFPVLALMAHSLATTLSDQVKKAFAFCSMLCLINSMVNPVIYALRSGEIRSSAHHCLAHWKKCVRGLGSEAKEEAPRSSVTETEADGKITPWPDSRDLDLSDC
# protocol-notes: Affinity binding test on human CB2 receptors (tritiated ligand, membranes of recombinant cell lines)
# stated-conditions: concentration causing 50% inhibition of specific binding of the tritiated ligand, read-out: IC50 (nM) hCB2
Quick reminder: number only, in nM, skip the unit.

Specify the recorded IC50 for COc1nc(NCCc2ccc(OC(F)F)cc2)nc(-c2ccc(F)c(C(C)(C)O)c2)n1 [Compound 45] , system: human CB2 receptors (Homo sapiens (Human), UniProt P34972). 30

Specify the recorded IC50 for COc1nc(NCCc2ccc(F)cc2)nc(-c2cccc3[nH]ccc23)n1 [Compound 27] , system: human CB2 receptors (Homo sapiens (Human), UniProt P34972). 27

Specify the recorded IC50 for COc1ccc2oc(-c3nc(NCCc4ccc(F)cc4)nc(OC)n3)cc2c1 [Compound 48] , system: human CB2 receptors (Homo sapiens (Human), UniProt P34972). 12

Specify the recorded IC50 for COc1nc(NCCc2ccc(F)cc2)nc(-c2cc3c(OC)cccc3[nH]2)n1 [Compound 23] , system: human CB2 receptors (Homo sapiens (Human), UniProt P34972). 33

Specify the recorded IC50 for COc1nc(NCCc2ccc(F)cc2)nc(-c2ccnc3ccccc23)n1 [Compound 33] , system: human CB2 receptors (Homo sapiens (Human), UniProt P34972). 11

Specify the recorded IC50 for COc1nc(NCCc2ccc(OC(F)(F)F)cc2)nc(-c2ccc(OC)c(C(C)(C)O)c2)n1 [Compound 54] , system: human CB2 receptors (Homo sapiens (Human), UniProt P34972). 9

Specify the recorded IC50 for COc1nc(NCCc2ccc(F)cc2)nc(-c2ccc(N(C)C)nc2)n1 [Compound 16] , system: human CB2 receptors (Homo sapiens (Human), UniProt P34972). 35
